# System: HeLa Kyoto;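 further: synchronized HeLa Kyoto cells, proteins quantified by TMT10plex mass spectrometry, three biological replicates, mitosis taken 0.5 h after nocodazole release, G1/S directly after double thymidine block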
# Measurement Notes: thermal stability score vs G1/S (z-score of summed log2 fold changes over temperatures); higher = more thermally stable than in G1/S
# Experimental Parameters: cell cycle stage: mitosis
Observed Property: thermal stability score

Biopolymer Sequence	Result Number
MERPQPDSMPQDLSEALKEATKEVHTQAENAEFMRNFQKGQVTRDGFKLVMASLYHIYVALEEEIERNKESPVFAPVYFPEELHRKAALEQDLAFWYGPRWQEVIPYTPAMQRYVKRLHEVGRTEPELLVAHAYTRYLGDLSGGQVLKKIAQKALDLPSSGEGLAFFTFPNIASATKFKQLYRSRMNSLEMTPAVRQRVIEEAKTAFLLNIQLFEELQELLTHDTKDQSPSRAPGLRQRASNKVQDSAPVETPRGKPPLNTRSQAPLLRWVLTLSFLVATVAVGLYAM [HMOX1]	0.9
MQWNVPRTVSRLARRTCLEPHNAGLFGHCQNVKGPLLLYNAESKVVLVQGPQKQWLHLSAAQCVAKERRPLDAHPPQPGVLRHKQGKQHVSFRRVFSSSATAQGTPEKKEEPDPLQDKSISLYQRFKKTFRQYGKVLIPVHLITSGVWFGTFYYAALKGVNVVPFLELIGLPDSVVSILKNSQSGNALTAYALFKIATPARYTVTLGGTSVTVKYLRSHGYMSTPPPVKEYLQDRMEETKELITEKMEETKDRLTEKLQETKEKVSFKKKVE [FAM210A]	-2.22
MASPGCLWLLAVALLPWTCASRALQHLDPPAPLPLVIWHGMGDSCCNPLSMGAIKKMVEKKIPGIYVLSLEIGKTLMEDVENSFFLNVNSQVTTVCQALAKDPKLQQGYNAMGFSQGGQFLRAVAQRCPSPPMINLISVGGQHQGVFGLPRCPGESSHICDFIRKTLNAGAYSKVVQERLVQAEYWHDPIKEDVYRNHSIFLADINQERGINESYKKNLMALKKFVMVKFLNDSIVDPVDSEWFGFYRSGQAKETIPLQETSLYTQDRLGLKEMDNAGQLVFLATEGDHLQLSEEWFYAHIIPFLG [PPT1]	-1.67
